assay context: in n-pentanol, 303.15 K
quantity kind: solubility (mole fraction)

Quick one: give measured solubility (mole fraction) for CC(C)(c1cc(Br)c(O)c(Br)c1)c1cc(Br)c(O)c(Br)c1
0.058
